tested.target: T1, recombinant human IL-13 (human, UniProt P35225 35-146)
T1 construct: also called rh-IL-13; hIL-13
T1 sequence (P35225 35-146 limits assumed): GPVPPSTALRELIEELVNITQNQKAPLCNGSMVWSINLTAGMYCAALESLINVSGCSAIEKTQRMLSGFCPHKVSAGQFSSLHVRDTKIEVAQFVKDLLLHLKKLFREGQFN
experiment.notes: SPR
Below, each entry is listed alongside its reported Kd.
The response must be a number in nM with no trailing unit.

Some binders with known Kd results, for comparison:
1) BDG38.129 (antibody, V domains shown, IgG1) VH: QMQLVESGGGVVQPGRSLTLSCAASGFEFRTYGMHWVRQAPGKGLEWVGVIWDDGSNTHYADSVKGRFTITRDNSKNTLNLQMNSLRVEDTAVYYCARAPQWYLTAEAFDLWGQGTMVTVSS VL: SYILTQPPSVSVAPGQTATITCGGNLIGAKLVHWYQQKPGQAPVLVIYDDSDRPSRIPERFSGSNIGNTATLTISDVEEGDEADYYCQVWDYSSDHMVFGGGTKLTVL : 0.0167
2) BDG38.127 (antibody, V domains shown, IgG1) VH: QMQLVESGGGVVQPGRSLTLSCAASGFEFRTYGMHWVRQAPGKGLEWVGVIWYDGSATHYADSVKGRFTITRDNSKNTLNLQMNSLRAEDTAVYYCARAPQWYLTAEAFDLWGQGTMVTVSS VL: SYILTQPPSVSVAPGETATITCGGNLIGAKLVHWYQQKPGQAPVLVIYDDSDRPSRIPERFSGSNIGNTATLTISDVEAGDEADYYCQVWDYYSDTYVFGGGTKLTVL : 0.00847

Form: binder = BDG38.137 (antibody, V domains shown, IgG1) VH: QMQLVESGGGVVQPGQSLRLSCAASGFEFRTYGMHWVRQAPGKGLEWVAVIWDDGSNTHYADSVKGRFTITRDNSKNTLNLQMNSLRAEDTAVYYCVRAPQWYLTAEAFDLWGQGTMVTVSS VL: SYVLTQPPSVSVAPGETATITCGGNLIGARLVHWYQQKPGQAPVLVIYDDSDRPSHIPERFSGSNSGNTATLTISRVEAGDEADYYCQVWDYSADTMVFGGGTKLTVL ; Kd = 0.058

Data provenance: patent US20240059769A1
